Each item that follows carries a reported GI50.
- Test system: SF-268 CNS
- TEST_NAME: NCI tumour cell line growth inhibition, 48 h

Please review the following examples before continuing.
>>> measured_value("O=C1CCCN1c1ccccc1I(=O)=O")
"> 100 µM"
>>> measured_value("CCN(CC)CCCCCCNc1cccc2cc(Br)cnc12")
"10.9 µM"
>>> measured_value("O=C(Nc1cc(Nc2ncccc2-c2ncnc3nc[nH]c23)ccc1F)c1cc(C(F)(F)F)cc(C(F)(F)F)c1")
"3.17 µM"
>>> measured_value("Cc1cc(Nc2nc(-c3cn(-c4ccc(Cl)cc4)nn3)nc3ccccc23)n[nH]1")
"14.6 µM"

Next compound, GI50 to be filled in.
For SF-268 CNS, provide GI50 of `COc1ccc(/C(C)=C(\c2ccc(OCCN3CCCCCC3)cc2)c2ccc(OC(=O)C3CCCCC3)cc2)cc1` please. 1.16 µM

* * *

- Test system: DLD-1 colon
- TEST_NAME: NCI tumour cell line growth inhibition, 48 h
MEASURE: TGI

>>> measured_value("CCOCN1COCN(C)C1=O")
"> 100 µM"
>>> measured_value("CC(O)CCCOC(c1ccccc1)(c1ccccc1)c1ccccc1 (centres undefined)")
"31.5 µM"
>>> measured_value("O=C1NCCS(=O)(=O)N[C@@H](CC2=CC=CCC2)C(=O)N2CCCC12 (some centres undefined)")
"> 100 µM"
>>> measured_value("CO[C@H]1Nc2c(ccc(C)c2O)C(=O)N2C=C(/C=C/C(N)=O)C[C@@H]12")
"> 47.6 µM"
>>> measured_value("CN(C)C(=S)SSC(=S)N(C)C")
"> 64 µM"

Please look up its TGI: Cc1ccc(C)c(N2C/C(=N\NC(=O)CC#N)C(c3nc4ccccc4s3)C(=O)C2=O)c1 (centres undefined) > 100 µM

Please look up its TGI: `O=C(N/C(=C\c1ccc([N+](=O)[O-])cc1)c1nc2ccccc2[nH]1)c1ccccc1` > 100 µM

Please look up its TGI: CC(C)=C1CCC(CN(C)C)C1=O (centres undefined) 36.8 µM

Please look up its TGI: COC(=O)C(=O)C(C(C)=O)C(=O)NCc1ccc(OC)c(OC)c1 (centres undefined) > 100 µM

* * *

- Test system: K-562 leukemia
- TEST_NAME: NCI tumour cell line growth inhibition, 48 h
MEASURE: TGI

Please review the following examples before continuing.
>>> measured_value("Nc1ccc(-c2nc3ccccc3s2)cc1C(F)(F)F")
"46.6 µM"
>>> measured_value("COC(=O)CCc1cc(OC)c2c(c1)[C@H](C(=O)OC)[C@@H](c1ccc(O)c(OC)c1)O2")
"50.4 µM"

Next compound, TGI to be filled in.
Please look up its TGI: `COC(=O)c1c2c(cc3c1CCC3)CCC2` > 100 µM

* * *

- Tested on: HOP-92 NSCLC
- TEST_NAME: NCI tumour cell line growth inhibition, 48 h; in the data active = GI50 below about 0.43 µM; inactive = the rest
A correct response names exactly one class from active, inactive

>>> assigned_label("COc1cc2cc(Oc3ccc(NC(=O)c4cc(C(F)(F)F)cc(C(F)(F)F)c4)cc3)c(C)nc2cc1OC")
"inactive"
>>> assigned_label("COc1ccc(-c2nccn2-c2ccc(OC)cc2)cc1")
"inactive"

Could you kindly confirm the outcome this assay logged for `C=CC(=O)N1CN(C(=O)C=C)CN(C(=O)C=C)C1` ? inactive

Could you kindly confirm the outcome this assay logged for `O=C1Nc2ccccc2/C1=C1\CCc2cc(O)ccc21` ? inactive

Could you kindly confirm the outcome this assay logged for `CC1(C)CN=C(NN=C(/C=C/c2ccc(C(F)(F)F)cc2)/C=C/c2ccc(C(F)(F)F)cc2)NC1` ? inactive

Could you kindly confirm the outcome this assay logged for `COc1ccc(-c2cnnn2-c2nonc2-n2cccc2)cc1` ? inactive

Could you kindly confirm the outcome this assay logged for `N=C(N)c1ccc(-c2ccc(-c3cccs3)s2)cc1` ? inactive
